Experiment: gradient 5% acetonitrile 3 min, to 50% in 2 min, to 85% in 15 min, held 3 min, 100 µL/min
Details: column: Zorbax Extend-C18 2.1 x 50 mm; eluents: water / acetonitrile, 0.1% formic acid
measure-name: RP-LC retention time (s)

Observe how each entry below is paired with its result.
> print(dat)
                                   compound  measured.number
1  O=C(Cn1nc2c(cc1=O)CCCC2)Nc1ccc(N2CCCS2(=O)=O)cc1              668
2   COc1ccc(C(=O)NC2(c3nc(C)no3)CCCCC2)cc1F              854
3  COc1cccc(C2Cn3nnc(-c4nc(-c5ccccc5)no4)c3CO2)c1 (stereo not given)             1130
4  Cc1cccc(Sc2nccnc2N2CCCC(C(=O)NCc3ccc(C)c(C)c3)C2)c1 (stereo not given)             1210
5  CCOC(=O)Cn1c(C2CC(=O)N(c3ccccc3F)C2)nc2ccccc21 (stereo not given)              746
6  CCOc1ccccc1NC(=O)NCC(c1cccnc1)c1c[nH]c2ccccc12 (stereo not given)              684

1 = COc1cccc(CNC(=O)Cn2ncc3c(c2=O)N(C2CC2)C(=O)CS3)c1
2 = CC1CCN(S(=O)(=O)c2ccc3nn(CCc4ccccc4)c(=O)n3c2)CC1
Query string: Compare RP-LC retention time: is it lower for 1 or for 2 ? The response must carry the label of the picked entry.
Result string: 1

A = Cc1cc(C)cc(N2CCC(NC(=O)c3ccc(C)s3)C2=O)c1 (stereo not given)
B = Cc1nn(CC(=O)NCCCN(C)Cc2ccccc2)c(=O)c2noc(C)c12
Query string: I'm curious, which of these has a smaller RP-LC retention time number: A or B ? Answer = label.
Result string: B

Source listed as the METLIN SMRT retention time set (Domingo-Almenara et al. 2019).
